Provenance of the data: patent US9295255B2

Test: log P determination by HPLC on reversed-phase column (EEC Directive 79/831 Annex V.A8)
Type: physicochemical
Conditions: reversed-phase C18 HPLC column, reversed-phase C 18, 43° C., acidic range pH 2.7, 0.1% aqueous formic acid/acetonitrile
assayReadout: chromatographic logP
Answer using only a numeral; do not append any unit.

Form: compound = "Cc1c(C)c(O)c2c(c1O)SC(C#N)=C(C#N)S2" ; chromatographic logP = 2.26

Form: compound = "CC(C)(C)c1cc(O)c2c(c1O)SC(C#N)=C(C#N)S2" ; chromatographic logP = 2.95

Form: compound = "COc1c(O)c2c(c(O)c1Cl)SC(C#N)=C(C#N)S2" ; chromatographic logP = 2.19

----------
Tested on: Phytophthora infestans
Format: in vivo
Details: young tomato plants sprayed, 1500 ppm, protective; evaluation 7 days following inoculation; 0% = control, 100% = no infestation
# Efficacy in % annotations
Report the value in % with no unit label.

{"chemicalString": "CC(C)(C)c1cc(=O)c2sc(C#N)c(C#N)sc=2c1=O", "Efficacy in % / %": 78}
{"chemicalString": "CC(C)(C)c1cc(O)c2c(c1O)SC(C#N)=C(C#N)S2", "Efficacy in % / %": 94}
{"chemicalString": "COc1c(O)c2c(c(O)c1Cl)SC(C#N)=C(C#N)S2", "Efficacy in % / %": 94}

Test item "Cc1c(C)c(O)c2c(c1O)SC(C#N)=C(C#N)S2" ; Phytophthora infestans; reported Efficacy in % was 89
